Parameter pIC50: see the listing below.
- Test system: Aβ secretion from CHO cells transfected with Swedish mutation Amyloid Precursor Protein (CHO-APPsw)
- procedure text: Aβ secretion inhibition in CHO-APPsw cells, sandwich ELISA
- Type: cell-based
- assay context: CHO-APPsw cells, serum free media overnight at 37° C., secreted Aβ by sandwich ELISA; read-out: Effect on Aβ Secretion (Concentration) (IC50)
- Protocol: This is an […] assay designed to show the ability of test compounds to inhibit amyloid aggregation. […] The polyclonal antibodies were purified on a protein G-Sepharose column prior to use. […] Fluorescence was measured using a Cytofluor plate reader (Perseptive Biosystems, Framingham, Mass., USA) set at 450 nm excitation and 560 emission. […]
pIC50: −log10 of the molar value.
reported endpoint: pIC50

1. CN1C(=O)CC(c2cccc(Cl)c2)c2cc(C(Nc3cncn3C)c3ccc(Cl)cc3)ccc21 (stereo not shown): 5.22
2. O=C(CN(Cc1ccc(OCc2ccccc2)cc1)C(=O)[C@H](Cc1c[nH]cn1)NC(=O)OCc1ccccc1)NCCOCc1ccccc1: 5.00
3. O=C(O)CCC(Oc1ccc2c(c1CCc1ccccc1)CCCC2=O)c1ccccc1 (stereo not shown): 4.86
4. O=C1CCCc2cc(OCCc3c[nH]cn3)ccc21: 5.12
5. O=C1/C(=C/c2cccs2)CCc2cc(OC(Cn3ccnc3)c3ccccc3)ccc21 (racemic): 5.35
6. O=C1CCCc2cc(OC(Cn3ccnc3)c3ccc(Cl)cc3)ccc21 (racemic): 4.60
7. CC(C)(CNC(=O)CN(Cc1ccc(OCc2ccccc2)cc1)C(=O)[C@H](Cc1cnc[nH]1)NC(=O)OCc1ccccc1)c1ccccc1: 4.30
8. O=C1CCC(c2ccccc2)c2cc(OC(Cn3ccnc3)c3ccccc3)ccc21 (racemic): 5.51
9. O=C1CCCc2c1ccc(S[C@H](Cn1ccnc1)c1ccccc1)c2CCc1ccccc1: 5.82
10. Cc1ccc(CN(CC(=O)NCC2(c3ccccc3)CCC2)C(=O)[C@H](Cc2c[nH]cn2)NC(=O)OCc2ccccc2)cc1: 5.00
